OD 490 nm at 50 nM antibody by entry:
Target: T1, IL-6R-Fc 항원 (IL-6R full domain 단백질) (human, UniProt P08887 20-365)
T1 construct: domain: IL-6R full domain; Expressed transiently in HEK293E and purified from the supernatant; also called IL-6R 항원; not shown: Fc part from expression vector pYK 604
T1 sequence (looked up): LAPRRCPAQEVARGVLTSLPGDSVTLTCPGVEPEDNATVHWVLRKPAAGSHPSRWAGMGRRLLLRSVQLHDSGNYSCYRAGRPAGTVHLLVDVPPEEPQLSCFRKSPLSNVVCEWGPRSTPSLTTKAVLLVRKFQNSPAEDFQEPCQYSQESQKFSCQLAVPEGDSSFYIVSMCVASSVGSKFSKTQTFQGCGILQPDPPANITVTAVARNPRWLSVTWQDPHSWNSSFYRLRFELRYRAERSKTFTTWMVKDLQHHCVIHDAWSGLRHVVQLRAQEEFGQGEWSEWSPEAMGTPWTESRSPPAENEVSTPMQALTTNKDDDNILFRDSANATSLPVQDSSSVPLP
Assay: ELISA, coated IL-6R 100 ng/well, anti-Fab-HRP

- BINDER: "항 IL-6R 단클론 항체 A7 (IgG) (antibody, V domains shown, Phage clone converted to whole IgG) VH: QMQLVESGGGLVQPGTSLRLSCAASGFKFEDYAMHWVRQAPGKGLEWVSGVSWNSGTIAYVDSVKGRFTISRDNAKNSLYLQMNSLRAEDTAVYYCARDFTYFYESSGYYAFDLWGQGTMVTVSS VL: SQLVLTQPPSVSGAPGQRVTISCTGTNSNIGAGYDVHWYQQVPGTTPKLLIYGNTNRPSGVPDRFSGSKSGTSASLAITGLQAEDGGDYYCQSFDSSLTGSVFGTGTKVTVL"
  OD 490 nm at 50 nM antibody / OD490: 3.1
- BINDER: "항 IL-6R 단클론 항체 B10 (IgG) (antibody, V domains shown, Phage clone converted to whole IgG) VH: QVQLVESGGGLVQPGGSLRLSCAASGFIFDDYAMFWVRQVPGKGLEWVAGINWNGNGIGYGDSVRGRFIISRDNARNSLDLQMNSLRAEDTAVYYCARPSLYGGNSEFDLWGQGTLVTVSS VL: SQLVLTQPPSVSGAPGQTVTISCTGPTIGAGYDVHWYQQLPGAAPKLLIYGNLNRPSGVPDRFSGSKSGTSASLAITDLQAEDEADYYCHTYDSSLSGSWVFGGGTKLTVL"
  OD 490 nm at 50 nM antibody / OD490: 2.09
- BINDER: "항 IL-6R 단클론 항체 D2 (IgG) (antibody, V domains shown, Phage clone converted to whole IgG) VH: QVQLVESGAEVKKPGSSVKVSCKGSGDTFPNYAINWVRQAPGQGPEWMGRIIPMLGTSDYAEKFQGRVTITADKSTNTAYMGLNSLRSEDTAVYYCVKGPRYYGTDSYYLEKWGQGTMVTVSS VL: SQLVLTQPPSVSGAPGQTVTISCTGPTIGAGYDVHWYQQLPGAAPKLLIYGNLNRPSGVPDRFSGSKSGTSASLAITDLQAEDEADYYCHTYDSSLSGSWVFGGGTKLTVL"
  OD 490 nm at 50 nM antibody / OD490: 2.38
- BINDER: "항 IL-6R 단클론 항체 F2 (IgG) (antibody, V domains shown, Phage clone converted to whole IgG) VH: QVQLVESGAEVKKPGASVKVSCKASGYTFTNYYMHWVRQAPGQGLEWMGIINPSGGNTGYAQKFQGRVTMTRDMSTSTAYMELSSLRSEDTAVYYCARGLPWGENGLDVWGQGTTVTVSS VL: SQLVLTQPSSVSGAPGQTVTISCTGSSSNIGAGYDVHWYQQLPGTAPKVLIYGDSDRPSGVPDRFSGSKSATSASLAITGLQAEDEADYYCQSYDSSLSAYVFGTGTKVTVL"
  OD 490 nm at 50 nM antibody / OD490: 2.99
